Reported Kd values for a set of molecules
test_system: TYK2 (JH2domain-pseudokinase) (Homo sapiens)
Construct: TYK2 (JH2domain-pseudokinase)-tagged T7 phage strains were prepared in an E. coli host derived from the BL21 strain
Sequence (P29597 589-875 limits assumed): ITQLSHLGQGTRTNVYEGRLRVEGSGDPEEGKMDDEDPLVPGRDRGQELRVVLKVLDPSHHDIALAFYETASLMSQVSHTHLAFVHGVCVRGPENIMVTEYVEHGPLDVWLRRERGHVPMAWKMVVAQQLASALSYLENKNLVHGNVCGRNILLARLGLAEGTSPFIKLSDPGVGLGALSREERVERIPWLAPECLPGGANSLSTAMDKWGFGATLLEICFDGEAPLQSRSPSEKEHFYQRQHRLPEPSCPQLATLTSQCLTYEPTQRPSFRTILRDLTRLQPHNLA
experiment: TYK2 JH2 domain binding assay (KINOMEscan)
Experimental: TYK2 (JH2domain-pseudokinase) KINOMEscan assay. […] Kds were determined using an 11-point 3-fold compound dilution series with three DMSO control points. […] The kinase concentration in the eluates was measured by qPCR. […] An 11-point 3-fold serial dilution of each test compound was prepared in 100% DMSO at 100x final test concentration and subsequently diluted to 1x in the assay (final DMSO concentration = 1%). Most Kds were determined using a compound top concentration = 30,000 nM. […]

COCCn1cnc(-c2ccnc(Nc3cc(Nc4cc(C)nc(C)n4)ncn3)c2OC)n1 : < 0.2 nM
Cc1cc(Nc2cc(Nc3ncc(-c4cnn(C)c4C)c(C)c3S(C)(=O)=O)ncn2)nc(C)n1 : < 0.2 nM
COc1c(Nc2cc(Nc3cc(C)nc(C)n3)ncn2)cccc1-c1cnn(C)c1 : 0.2 to 1 nM
COc1c(Nc2cc(Nc3cc(C)nc(C)n3)ncn2)cccc1-c1ncn(CC2CCOCC2)n1 : 0.2 to 1 nM
Cc1cc(C)c(N(C)S(C)(=O)=O)c(Nc2cc(Nc3cc(C)ncn3)ncn2)c1 : > 10 nM
COc1c(Nc2cc(Nc3cc(C)nc(C)n3)ncn2)cccc1-c1noc(CN2CCOCC2)n1 : < 0.2 nM
Cc1cc(Nc2cc(Nc3ncc(-c4cnn(C)c4C)cc3NS(C)(=O)=O)ncn2)nc(C)n1 : < 0.2 nM
COc1c(C#N)cccc1Nc1cc(Nc2cc(C)nc(C)n2)ncn1 : 1 to 10 nM
COc1c(-c2nc(C)n(C)n2)ccnc1Nc1cc(Nc2cc(C)nc(C)n2)ncn1 : < 0.2 nM
Cc1cc(Nc2cc(Nc3ncccc3N(C)S(C)(=O)=O)ncn2)nc(C)n1 : < 0.2 nM

Ask: # query: Kd | item `COc1c(C)cccc1Nc1cc(NC(=O)C2CC2)ncn1` | system: TYK2 (JH2domain-pseudokinase) (Homo sapiens)
Reply: 1 to 10 nM

Ask: # query: Kd | item `Cc1cc(Nc2cc(Nc3ncc(-c4ocnc4C)cc3N(C)S(C)(=O)=O)ncn2)nc(C)n1` | system: TYK2 (JH2domain-pseudokinase) (Homo sapiens)
Reply: < 0.2 nM

###

System: STAT1/3 through TYK2/JAK1
experiment: IFNa induced STAT phosphorylation in HEK293 cells (SIE-bla reporter gene)
Assay type: cell-based
measurement_parameters: Homo sapiens, HEK293; HEK293T-sie-bla cells, IFNa at EC80, 4 hours; read-out: Inhibition of IFNa induced STAT phosphorylation HEK293 cells IC50
pIC50: −log10 of the molar value.
value_kind: pIC50

COc1c(Nc2cc(Nc3cc(C)nc(C)n3)ncn2)cccc1-c1cnn(C)c1 : 7.00 to 8.00
COc1c(-c2ncn(C)n2)ccnc1Nc1cc(Nc2ccc(F)c(C)n2)ncn1 : 7.00 to 8.00
COc1cc(-c2cnn(C)c2C)cnc1Nc1cc(Nc2cc(C)nc(C)n2)ncn1 : > 8.00
CN=S(C)(=O)c1cc(C2CC2)ccc1Nc1cc(Nc2cc(C)nc(C)n2)ncn1 (centres unmarked) : > 8.00
COc1c(Nc2cc(NC(=O)C3CC3)ncn2)cccc1-c1ncn(C)n1 : 6.00 to 7.00

Next item in the queue.
Ask: Would you mind telling me what pIC50 value was observed for COc1c(Nc2cc(Nc3cc(C)nc(C)n3)ncn2)cccc1-c1ncn(CC2CCOC2)n1 (centres unmarked) ?
Reply: 7.00 to 8.00
